# system-tested: Biotinylated NpF2164g6 (1038–1206), Avi-tagged holo-protein
# Sequence (main, as listed by the source): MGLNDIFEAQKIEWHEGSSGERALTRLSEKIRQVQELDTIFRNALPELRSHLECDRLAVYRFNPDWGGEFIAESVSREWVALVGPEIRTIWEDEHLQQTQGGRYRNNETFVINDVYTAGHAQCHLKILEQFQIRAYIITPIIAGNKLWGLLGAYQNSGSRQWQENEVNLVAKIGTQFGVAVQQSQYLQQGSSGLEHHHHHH
# assay: ELISA; purified biotinylated NpF2164g6 immobilised, purified FLAG-tagged binders, dark-adapted (Pr state)
attribute-measured: pKd
Just the number, please; pKd means minus log10 of the concentration in mol/L.

Q: Give pKd for BNp-Red-1.2 (designed binder) MKLATIDQWLLKNAKEDAIAELKKAGITADAYFNWINNAWDVDYVNYRKNKILKAHAGSSGLEHHHHHH
Ans: 6.22
